Measured values drawn from patent US20180291110A1 for this set.

- SYSTEM_TESTED: T1, human transferrin receptor (recombinant, for surface plasmon resonance) (human, UniProt P02786 89-760)
- T1 construct: also called huTfR; human transferrin receptor-biotinylated
- METHOD_SUMMARY: SPR 25C
For each entry below, report its koff value.
One number for each entry, in s⁻¹.

Can you look up the measured koff of 2/99 VH22/VL4 (antibody, V domains shown) VH: QSMQESGPGLVKPSQTLSLTCTVSGFSLSSYAMSWVRQHPGKGLEWIGYIWSGGSTDYASWAKSRVTISVDTSKNQVSLKLSSVTAADTAVYYCARRYGTSYPDYGDANGFDPWGQGTLVTVSS VL: AYQMTQSPSSLSASVGDRVTITCRASQSISSYLSWYQQKPGKAPKLLIYRASTLASGVPSRFSGSGSGTDFTLTISSLQPEDFATYYCQQSYSSSNVDNTFGGGTKVEIK for me? 0.00118

Batch of 4 binders: report koff for each.
1. 2/99 VH8/VL5 (antibody, V domains shown) VH: QQLVETGGGLIQPGGSLRLSCAASGFSLSSYAMSWVRQAPGKGLEWIGYIWSGGSTDYASWAKGRFTISKTSTTLYLQMNSLRAEDTAVYYCARRYGTSYPDYGDANGFDPWGQGTLVTVSS VL: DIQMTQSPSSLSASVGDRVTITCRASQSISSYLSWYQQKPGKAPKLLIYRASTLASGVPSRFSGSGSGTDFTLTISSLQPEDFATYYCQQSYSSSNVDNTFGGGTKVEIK
2. 2/99 VH19/VL4 (antibody, V domains shown) VH: QSMQESGPGLVKPSQTLSLTCTVSGFSLSSYAMSWIRQHPGKGLEWIGYIWSGGSTDYAPSLKSRVTISVDTSKNQFSLKLSSVTAADTAVYYCARRYGTSYPDYGDANGFDPWGQGTLVTVSS VL: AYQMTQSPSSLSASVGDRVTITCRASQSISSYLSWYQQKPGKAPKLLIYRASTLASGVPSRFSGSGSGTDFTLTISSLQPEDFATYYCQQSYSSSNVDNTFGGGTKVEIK
3. 2/99 VH18/VL6 (antibody, V domains shown) VH: QVQLQESGPGLVKPSQTLSLTCTVSGFSLSSYAMSWIRQHPGKGLEWIGYIWSGGSTDYAPSLKSRVTISVDTSKNQFSLKLSSVTAADTAVYYCARRYGTSYPDYGDANGFDPWGQGTLVTVSS VL: AIQLTQSPSSLSASVGDRVTITCRASQSISSYLSWYQQKPGKAPKLLIYRASTLASGVPSRFSGSGSGTDFTLTISSLQPEDFATYYCQQSYSSSNVDNTFGGGTKVEIK
4. 2/99 VH2/VL7 (antibody, V domains shown) VH: EVQLVETGGGLIQPGGSLRLSCAASGFSLSSYAMSWVRQAPGKGLEWVGYIWSGGSTDYADSVKGRFTISRDNSKNTLYLQMNSLRAEDTAVYYCARRYGTSYPDYGDANGFDPWGQGTLVTVSS VL: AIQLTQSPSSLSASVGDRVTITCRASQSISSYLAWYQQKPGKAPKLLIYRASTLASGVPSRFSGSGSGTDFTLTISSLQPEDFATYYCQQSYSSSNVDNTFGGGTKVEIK

1: 0.00107; 2: 0.001; 3: 0.00674; 4: 0.0075
